- Study system: Thyrotropin-releasing hormone receptor (Homo sapiens)
- Measurement description: qHTS for Small Molecule Agonists and Allosteric Enhancers of Human TRH Receptor: Validation Screen for Agonists (AID 493127);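 further: intracellular calcium rise by fluo-8 fluorescence before TRH EC20 addition; 0% is about no effect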
- Stated conditions: TRH receptor agonist cell assay; at 2 µM; active compounds read high
Active and inactive are the calls of the source.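 How the source made its calls: active means calcium activation more than 3 SD above the typical response in the agonist read; inactive means the rest.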
Experimental readout: activation

Illustrative cases are given below, each with its answer.
Molecule	activation
O=C1CCCN1CC#CCN1CCCC1	3.06% (inactive)
NC1CC1c1ccccc1 (stereo not drawn)	1.44% (inactive)

Param item: `CNCCc1c[nH]c2ccc(O)cc12` ; param system: Thyrotropin-releasing hormone receptor (Homo sapiens); output activation: 1.06% (inactive)

// returns activation for NC(CP(=O)(O)O)C(=O)O (stereo not drawn) with Thyrotropin-releasing hormone receptor (Homo sapiens); value = -3.19% (inactive)

Value (activation, Thyrotropin-releasing hormone receptor (Homo sapiens)) for record `Cc1nccc2c1[nH]c1ccccc12` = 0.938% (inactive)

Item CCCN(CCC)C1CCc2ccc(O)cc2C1 (stereo not drawn) ; assay system Thyrotropin-releasing hormone receptor (Homo sapiens); activation reported as -5.19% (inactive)

Fill in: Thyrotropin-releasing hormone receptor (Homo sapiens) activation for `CN[C@@H](C)[C@H](O)c1ccccc1` = 3.19% (inactive)

Bench note, Thyrotropin-releasing hormone receptor (Homo sapiens): entry `S=C(NC1CCCCC1)N1CCC(c2cnc[nH]2)CC1` , its activation = 0.5% (inactive)

---

- Measurement description: qHTS for Inhibitors of the Functional Ribonucleoprotein Complex (vRNP) of Lassa (LASV) Arenavirus: LASV Primary Screen - GLuc reporter signal (AID 1347082); further: nearly all actives have a fitted effect of over 60% in size
- Stated conditions: LASV minigenome vRNP, Gaussia luciferase reporter; series mostly up to 57.5 µM
Results filed as inconclusive are left out. Active and inactive are the calls of the source. Calls come from the whole dose curve; tested in HEK293 reporter line.
Your reply should match one of these outcome classes. t (active), f (inactive)

Molecule	Class label
CCCN(CCC)[C@@H]1CCc2ccc(O)cc2C1	f
CC(C)(C)C(O)C(Oc1ccc(Cl)cc1)n1cncn1 (stereo not drawn)	f
COc1cc(Oc2ccnc3cc(OC)c(OC)cc23)ccc1NC(=O)NC(C)c1nccs1 (stereo not drawn)	f

Query: Any idea what this test logged for CC(C)(C)[C@]1(O)C[C@@H]2OC(=O)C[C@@]23C(=O)O[C@@H]2OC(=O)[C@H](O)C213 (stereo partly drawn) ?
Reply: f

Query: Outcome? `CC(=O)Nc1sc2c(c1-c1nc3ccccc3s1)CNC2`
Reply: f

Query: What outcome does the record of this test show for `CC(=O)Nc1ccc(OC[C@](C)(O)C(=O)Nc2ccc([N+](=O)[O-])c(C(F)(F)F)c2)cc1` ?
Reply: f

Query: // return assay outcome for COc1ccc2c(c1)[C@]13CCCCC1C(C2)N(C)CC3 (stereo partly drawn)
Reply: f

Query: Record request — test call for `CC[C@@H]1C(=O)N(C)c2cnc(Nc3ccc(C(=O)NC4CCN(C)CC4)cc3OC)nc2N1C1CCCC1`
Reply: t

Query: Each molecule tested received a call. Report the one for `CCC(=C(c1ccccc1)c1ccc(OCCN(C)C)cc1)c1ccccc1` .
Reply: f

Query: How was `O=C(NC1CCNCC1)c1[nH]ncc1NC(=O)c1c(Cl)cccc1Cl` classified in this test?
Reply: t

Query: recorded result category for CCC(=O)O[C@@H]1C=C2CCC3C(CCC4(C)C3CC[C@@H]4OC(=O)CC)C2CC1 (stereo partly drawn) in this test
Reply: f

Query: So what was the verdict on `c1ccc(-c2nn3c(c2-c2ccnc4cc(OCCN5CCOCC5)ccc24)CCC3)nc1` in this test?
Reply: f

Query: Called result for `Oc1c(I)cc(I)c2cccnc12`
Reply: f

---

- Measurement description: qHTS for Inhibitors of the Functional Ribonucleoprotein Complex (vRNP) of Lassa (LASV) Arenavirus: Viability assay - alamar blue signal for LASV Primary Screen (AID 1347083); further: nearly all actives have a fitted effect of over 80% in size
- Stated conditions: cell viability, alamar blue fluorescence (LASV minigenome counter-screen); series mostly up to 57.5 µM
Results filed as inconclusive are left out. Activity calls are given as the source filed them. The call rests on the fitted dose curve; tested in HEK293 reporter line.
Give one outcome, nothing more. List: class 1 = active, class 0 = inactive

Worked cases, answers included:
Compound	Class label
Cc1cc2c(F)c(Oc3ncnn4cc(OC[C@@H](C)O)c(C)c34)ccc2[nH]1	class 1
C=CC(=O)NCNC(=O)C=C	class 0
COc1nn(CSP(=S)(OC)OC)c(=O)s1	class 0
C[C@]12CC[C@H]3[C@@H](CCC4=CC(=O)CC[C@@]43C)[C@H]1CC[C@H]2O	class 0
CN1CCC(CNc2ccc3ncc(-c4cccc(OC(F)(F)F)c4)n3n2)CC1	class 1

Query: Recorded test call requested for `COc1ccc(C=Cc2cc(OC)c(OC)c(OC)c2)cc1O`
Reply: class 0

Query: Recorded call for `CCOC(=O)c1c(C(C#N)=CN)c2ccc(Cl)c(Cl)c2n1C` ?
Reply: class 1

Query: Outcome logged for `CCc1cc(Nc2nccc(-c3c(-c4ccc(OC)c(C(=O)Nc5c(F)cccc5F)c4)nc4ccccn34)n2)c(OC)cc1N1CCC(N2CCN(S(C)(=O)=O)CC2)CC1` in this assay:
Reply: class 0

Query: What outcome does the record of this test show for `c1ccc2sc(C3(N4CCCCC4)CCCCC3)cc2c1` ?
Reply: class 0

Query: Hi team, can someone confirm the assay call for `Cc1cc([C@@H](C)Nc2ccccc2C(=O)O)c2nc(N3CCOCC3)cc(=O)n2c1` ?
Reply: class 1

Query: So what was the verdict on `Cc1ccc(C(=O)Nc2ccc(CN3CCN(C)CC3)c(C(F)(F)F)c2)cc1C#Cc1cnc2cccnn12` in this test?
Reply: class 1

Query: Dear colleague, could you share the recorded outcome for `c1ccc(CCCN2CCN(CCOC(c3ccccc3)c3ccccc3)CC2)cc1` when you have a moment?
Reply: class 0

---

- Measurement description: qHTS Assay for Identifying Gametocytocidal Compounds (AID 743244);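 further: on the % scale 0 is the no-effect control and ±100 the full control effect; actives lower the fluorescent signal which means gametocytes are killed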
- Stated conditions: P. falciparum 3D7 stage III-V gametocytes, alamarBlue, 72 h; active compounds read low
Results filed as inconclusive are left out.
Rule for this label: T means max response is less than 10%; F means max response is at least 10%.

// below: answered compounds
Compound	Class label
C=CC(=O)NCNC(=O)C=C	F
O=C1CCCN1CC#CCN1CCCC1	F
O=C(O)c1cc(Oc2ccc(C(F)(F)F)cc2Cl)ccc1[N+](=O)[O-]	T
CS(=O)(=O)c1ccc(C(=O)C2C(=O)CCCC2=O)c([N+](=O)[O-])c1	T
O=S(=O)(O)C(F)(F)C(F)(F)C(F)(F)C(F)(F)C(F)(F)C(F)(F)C(F)(F)C(F)(F)F	T

Now for a further compound.
Query: # TODO verify max response < 10% strictly for this compound: NC1CCc2cc(O)c(O)cc2C1 (centres undefined)
Reply: F

---

- Study system: Luciferin 4-monooxygenase (Photinus pyralis)
- Measurement description: Biochemical firefly luciferase enzyme assay for NPC (AID 624030); further: nearly all actives have a fitted effect of over 70% in size
- Stated conditions: purified P. pyralis luciferase, luminescence, 5 min; series mostly up to 58.6 µM
Records with an inconclusive call do not appear. Active and inactive are the calls of the source. The call rests on the fitted dose curve; in most records, active means well fitted inhibition curve with a large enough effect; inconclusive means small, poorly fitted or top-dose-only effect; inactive means flat fitted curve, though single readings scatter.
Permitted responses: 1.0 for active, 0.0 for inactive

Use these answered entries as a reference point.
Compound	Class label
Cc1ccc(Cl)c(O)c1	0.0
O=C(O)COc1ccccc1	0.0
O=C(O)C(Cl)Cl	0.0
CC[N+]1(CCOC(=O)C(O)(c2ccccc2)c2ccccc2)CCCCC1	0.0
CCC1(CCC(C)C)C(=O)NC(=O)NC1=O	0.0
C=CCC1=C(C)C(OC(=O)C2C(C=C(C)C)C2(C)C)CC1=O (configuration not stated)	0.0
O=[N+]([O-])c1cc([N+](=O)[O-])c2ccccc2c1	0.0
CC(=O)OCC1=C(C(=O)O)N2C(=O)[C@@H](N)[C@@H]2SC1	0.0

Query: Field: outcome | Entry: `CCCCc1ccc(C(=O)O)nc1`
Reply: 0.0

Query: Given CC(C)NCC(O)c1ccc([N+](=O)[O-])cc1 (configuration not stated) , state the outcome it received in this test.
Reply: 0.0

Query: Call for entry `O=[N+]([O-])c1ccc([As](=O)(O)O)cc1` :
Reply: 0.0

Query: Could you please tell me the result logged for `C[C@]12N[C@H](Cc3ccccc31)c1ccccc12` in this assay?
Reply: 0.0

Query: Would you mind telling me which call this test gave COC(=O)c1cncn1C(C)c1ccccc1 (configuration not stated) ?
Reply: 0.0

Query: Tell me the assay call for NC(=O)CN1CC(O)CC1=O (configuration not stated) please.
Reply: 0.0

Query: How was `O=[N+]([O-])c1c2ccccc2cc2ccccc12` classified in this test?
Reply: 0.0

Query: Check the results log: what was the call for `[Cl][In]([Cl])[Cl]` ?
Reply: 1.0

Query: In this assay, the call recorded for `C[C@@H]1[C@H](O)[C@@H](C)C=CC=CCCC=CC=CC=CC=C[C@H](O[C@H]2O[C@@H](C)[C@H](O)[C@@H](N)[C@@H]2O)CC2O[C@](O)(C[C@@H](O)[C@H](O)CC[C@@H](O)C[C@@H](O)C[C@@H](O)CC(=O)O[C@H]1C)C[C@H](O)[C@H]2C(=O)O` was what?
Reply: 0.0

Query: Returns: the outcome recorded for `ClC1=C(Cl)[C@]2(Cl)[C@@H]3[C@@H]4C[C@@H]([C@H]5O[C@@H]45)[C@@H]3[C@@]1(Cl)C2(Cl)Cl` in this assay.
Reply: 0.0

Query: Recorded test outcome, item `C1CCC(NC2CCCCC2)CC1`
Reply: 0.0
